Format: in vivo, human
Details: human, plasma, oral, 200 mg, AUC0–∞,obs, fasted, single 200 mg tablet, adjusted geometric mean
parameter: AUC(0-inf) (µM·h)
Numbers only, in µM·h.

Input line: Please give the measured AUC(0-inf) for this molecule: `COc1cc(C(=O)NC2CCN(C)CC2)c(F)cc1Nc1ncc(C(F)(F)F)c(Oc2cccc3c2C(=O)N(C)C3)n1`
Output line: 39.9

====

Type: in vivo, human
Conditions: human, plasma, oral, 200 mg, tmax, fed (high-calorie meal), single 200 mg tablet, median [range], n=15
parameter: Tmax (h)
One number for each entry, in h.

Input line: Please give the measured Tmax for this compound: `COc1cc(C(=O)NC2CCN(C)CC2)c(F)cc1Nc1ncc(C(F)(F)F)c(Oc2cccc3c2C(=O)N(C)C3)n1`
Output line: 4
